meta.source: patent US20230303994

- target system: pre-pro-insulin glargine
metric: desThr

Examples from the recorded data:
trypsin variant SEQ ID NO: 119 (protein) IVGGYTCAANSIPYQVSLNSGSHRCGGSLINSQWVVSAAHCYKPRIQVRLGEHNIHVLEGNEQFINAAKIITHPNFNGNTLDNDIMLIKLSSPATLNSAVATVSLPTSCAAAGTECLISGWGNTASSGSSMPSLLQCLKAPVLSDSSCKSSYPGQITGNMICVGFLEGGKDACQGDSGGPVVCNGQLQGIVSSGYGCAQKNKPGVYTKVCNYVNWIQQTIAAN = 1 area %
trypsin variant SEQ ID NO: 87 (protein) IVGGYTCAANSIPYQVSLNSGSHRCGGSLINSQWVVSAAHCYKPRIQVRLGEHNIHVLEGNEQFINAAKIITHPNFNPNTLDNDIMLIKLSSPATLNSHVATVSLPTSCAAAGTECLISGWGNTSSSGSSMPSLLQCLKAPVLSDSSCKSSYPGQITGNMICVGFLEGGKDACQGDSGGPVVCNGQLQGIVSSGYGCAQKNKPGVYTKVCNYVNWIQQTIAAN = 0.3 area %

Now, please, on to the next protein.
Any idea what desThr was measured for trypsin variant SEQ ID NO: 106 (protein) IVGGYTCAANSIPYQVSLNSGSHRCGGSLINSQWVVSAAHCYKSRIQVRLGEHNIHVLEGNEQFINAAKIITHPNFNPNTLDNDIMLIKLSSPATLNSAVATVSLPTSCAAAGTECLISGWGNTCSSGSSMPSLLQCLKAPVLSDSSCKSSYPGQITGNMICVGFLEGGADACQGDSGGPVVCNGQLQGIVSSGYGCAQKNKPGVYTKVCNYVNWIQQTIAAN ?
1 area %
